- test-method-notes: in vivo
- test-context: female, C57BL/6J, mouse, ip, 50 mg/kg, Cmax in brain, Mouse 1
metric-name: Cmax
Write the numeric value and follow it with the unit.

Consider the compound CCO[C@@H]1OC(=O)C[C@@H]1NC(=O)[C@@H]1CCCN1C(=O)[C@@H](NC(=O)c1ccc(N)c(Cl)c1)C(C)(C)C and give its measured Cmax.
240 nM

----------
- test-method-notes: in vivo
- test-context: female, C57BL/6J, mouse, ip, 50 mg/kg, brain concentration, Mouse 2
metric-name: concentration at 0.5 h (nM)
Give just the numeric value; nM need not be written.

Consider the compound CCO[C@@H]1OC(=O)C[C@@H]1NC(=O)[C@@H]1CCCN1C(=O)[C@@H](NC(=O)c1ccc(N)c(Cl)c1)C(C)(C)C and give its measured concentration at 0.5 h.
90
